Test: in vitro
Details: human, hela cells, % viability
ENDPOINT NAME: viability at 28.5 h, 10 µM (%)
Only the number, expressed in %, is required.

Some solved cases for reference:
• O=S(=O)(O)c1cccc2cccc(Nc3ccccc3)c12 [CBK013362G] = 84.8
• O=C(O)CCC(=O)Nc1cccc2ccccc12 = 112
• Cc1ccc(SCC(=O)Nc2cc([N+](=O)[O-])ccc2O)cc1 = 123
• CN(C)S(=O)(=O)N1CCN(c2ccc([N+](=O)[O-])c(NC3C4CC5CC(C4)CC3C5)c2)CC1 (stereo not drawn) = 102
• COCC(=O)N1CCC(Oc2ccc3ncccc3c2)(C(=O)O)CC1 = 103
• O=C1N[C@H]2CCCN(C(=O)c3cncs3)[C@H]2CCCCCOc2ccccc21 = 98.2

Which viability at 28.5 h, 10 µM value is on record for CC/C(=C/c1sc2ccc3ccccc3c2[n+]1CCCS(=O)(=O)[O-])SC ?
104

What would you report for C=CCNC(=O)Cn1c([C@@H]2CCCO2)cc2cccnc21 ?
98.2

What would you report for CCC(Sc1ccc2nnc(-c3cccnc3)n2n1)C(=O)O (stereo not drawn) ?
110

----------
Quick reference: viability at 28.5 h, 10 µM of the listed items.
Assay: in vitro
Conditions: human, hela cells, % viability
Only the number, expressed in %, is required.

Some solved cases for reference:
• Nc1c(C(=O)NCc2ccco2)c2nc3ccccc3nc2n1C1CCCC1 = 106
• Cc1ccccc1CCNC(=O)c1cccn(CC(=O)N(C)C2CCCCC2)c1=O = 122

Which viability at 28.5 h, 10 µM value is on record for Cc1ccc2c(c1)cc(C)c1nn(CC(=O)N3CCCCC3)c(=O)n12 ?
81.6

What would you report for C=CCN1CC2(c3ccccc3)CN(CC=C)CC(c3ccccc3)(C1)C2=O ?
86.3

What would you report for CCNC(=O)CN1CCN(C(=O)C(C)(C)c2cccc(C#N)c2)CC1 ?
96.4

What would you report for c1cc(-c2nccnc2OC2CCCCC2)ccn1 ?
87.8

----------
Quick reference: viability at 28.5 h, 10 µM of the listed items.
Experiment: in vitro
Details: human, hela cells, % viability
Only the number, expressed in %, is required.

* CC1OC(n2ccc(=S)[nH]c2=O)C(O)C1O (stereo not drawn) | 103
* CN(C)c1cccc(-c2cncc(NCCCO)n2)c1 | 102
* COc1ccc(-n2nc3cc(C)c(NC(=S)NC(=O)c4oc5ccccc5c4C)cc3n2)cc1 | 103
* CCN1CCN(C(=O)c2ccc3nc(-c4ccccc4)c(-c4ccccc4)nc3c2)CC1 | 94.7
* N#CCCCN1CCN(c2nccnc2OC2CCCCC2)CC1 [CBK082841T] | 87.4

Which viability at 28.5 h, 10 µM value is on record for O=c1n(-c2ccc(Cl)c(Cl)c2)ccn1S(=O)(=O)CCc1cccc2ccccc12 ?
106

What would you report for CC(C)Cn1c(SCC(=O)N2CCNC2=O)nnc1-c1ccco1 ?
106

What would you report for CCC(=O)N1CCN(CCNC=C2C(=O)CC(c3cccs3)CC2=O)CC1 (stereo not drawn) ?
97

What would you report for NC(=O)C1(Cc2cccc(-c3cccs3)c2)CCN(C(=O)Cc2ccccc2)CC1 ?
84.8

----------
Test: in vitro
Details: human, hela cells, % viability
ENDPOINT NAME: viability at 28.5 h, 10 µM

Some solved cases for reference:
- NC1=NNC2=C(c3cccc(Cl)c3)NNN12 [CBK093661]: 87.3%
- CN1CCC(N2CCN(C(=O)NC3CCc4ccccc43)CC2)CC1 (stereo not drawn) [CBK156110]: 106%
- CC(=O)Nc1ccc(C(=O)N2CCNC(=O)C2Cc2ccccc2-c2cccc(C)c2)cc1 (stereo not drawn) [CBK285837]: 106%
- C=CCn1c(SCC(=O)Nc2cccc(C(F)(F)F)c2)nnc1C12CC3CC(CC(C3)C1)C2 [CBK266054]: 105%
- COc1ccc2c(c1)cc(C(=O)N1CCCn3cncc3C1)n2C [CBK306516]: 96.1%

Which viability at 28.5 h, 10 µM value is on record for O=C(c1cccc(NS(=O)(=O)Cc2ccccc2)c1)N1CCOCC1 [CBK038991] ?
91%

What would you report for CCOC(=O)N1CCCN(C(=O)OCC)CC1 [CBK034324] ?
101%

What would you report for CN1CCOCC(CNC(=O)c2ccc(-c3cnc(N)nc3)cc2)C1 (stereo not drawn) [CBK307119] ?
100%

What would you report for Oc1nc(CSc2nnc(-c3ccncc3)n2-c2ccccc2)nc2ccccc12 [CBK264851] ?
97.5%
